target: IGF-1R (Homo sapiens, UniProt P08069); assay: Cellular IGF-1R assay: capture ELISA (MSD) of receptor phosphorylation in Hek293 cells; conditions: Hek293-IGF1R cells, 1 h pre-incubation, 10 min IGF stimulation, pIGF1R capture ELISA
Sequence (P08069 31-1367): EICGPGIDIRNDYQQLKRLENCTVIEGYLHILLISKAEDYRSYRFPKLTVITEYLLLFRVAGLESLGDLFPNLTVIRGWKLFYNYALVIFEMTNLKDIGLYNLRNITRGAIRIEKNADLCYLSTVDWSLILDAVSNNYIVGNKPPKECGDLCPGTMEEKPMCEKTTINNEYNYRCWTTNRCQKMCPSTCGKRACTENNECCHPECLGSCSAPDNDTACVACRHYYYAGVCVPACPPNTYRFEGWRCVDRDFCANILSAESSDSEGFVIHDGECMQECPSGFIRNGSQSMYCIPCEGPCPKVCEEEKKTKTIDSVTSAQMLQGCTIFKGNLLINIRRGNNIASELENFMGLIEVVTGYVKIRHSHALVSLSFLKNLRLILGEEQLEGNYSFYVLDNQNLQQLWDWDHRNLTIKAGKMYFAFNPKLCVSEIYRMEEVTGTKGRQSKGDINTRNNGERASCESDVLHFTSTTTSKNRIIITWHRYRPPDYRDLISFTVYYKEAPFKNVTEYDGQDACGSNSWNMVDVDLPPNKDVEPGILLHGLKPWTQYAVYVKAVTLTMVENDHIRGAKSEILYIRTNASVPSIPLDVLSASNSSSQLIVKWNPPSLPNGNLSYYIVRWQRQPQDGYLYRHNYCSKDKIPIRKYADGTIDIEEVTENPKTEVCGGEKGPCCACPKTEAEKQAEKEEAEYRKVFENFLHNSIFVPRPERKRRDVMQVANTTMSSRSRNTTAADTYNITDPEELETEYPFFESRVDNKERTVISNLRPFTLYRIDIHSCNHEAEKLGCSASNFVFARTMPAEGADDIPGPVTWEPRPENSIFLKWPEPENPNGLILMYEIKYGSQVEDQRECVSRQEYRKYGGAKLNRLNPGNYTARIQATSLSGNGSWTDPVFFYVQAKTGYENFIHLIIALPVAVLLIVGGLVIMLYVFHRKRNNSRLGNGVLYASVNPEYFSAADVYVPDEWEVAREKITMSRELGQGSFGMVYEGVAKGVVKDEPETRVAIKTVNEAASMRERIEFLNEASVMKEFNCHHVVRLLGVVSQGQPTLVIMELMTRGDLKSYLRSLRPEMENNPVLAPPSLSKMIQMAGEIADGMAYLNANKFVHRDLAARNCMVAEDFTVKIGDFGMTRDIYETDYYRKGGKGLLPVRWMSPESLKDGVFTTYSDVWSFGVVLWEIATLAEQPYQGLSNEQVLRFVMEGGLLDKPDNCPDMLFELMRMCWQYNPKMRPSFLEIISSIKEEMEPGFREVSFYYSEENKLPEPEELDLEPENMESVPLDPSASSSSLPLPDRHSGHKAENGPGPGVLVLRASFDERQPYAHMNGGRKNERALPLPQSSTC
pIC50: −log10 of the molar value.
Measured quantity: pIC50

compound="Nc1ncnc2c1c(-c1cccc(OCC34CCC(CC3)O4)c1)cn2C1CCC(c2cnco2)CC1 (stereo not shown) [Example 150]" measured_quantity=pIC50 result_value=6.47
compound="Nc1ncnc2c1c(-c1cccc(OCC3CCCCO3)c1)cn2[C@H]1C[C@@H](CN2CC[C@H](O)C2)C1 (stereo partly shown) [Example 34]" measured_quantity=pIC50 result_value=6.48

1: Nc1ncnc2c1c(-c1cccc(OCC34CCC(CC3)O4)c1)cn2[C@H]1C[C@@H](CN2C(=O)c3ccccc3C2=O)C1 [Example 108]
2: Nc1ncnc2c1c(-c1cccc(OCC3CCCCO3)c1)cn2[C@H]1C[C@@H](CN2CCCC2C(=O)O)C1 (relative stereo) [Example 92]
3: CC1(C)CCC(COc2cccc(-c3cn([C@H]4C[C@H](CN5CC[C@@H](O)[C@H]5C(N)=O)C4)c4ncnc(N)c34)c2)O1 (stereo partly shown) [Example 80]
4: NC[C@]1(O)C[C@@H](n2cc(-c3cccc(OCC45CCC(CC4)O5)c3)c3c(N)ncnc32)C1 [Example 208]
5: CC1(C)CCC(COc2cccc(-c3cn([C@H]4C[C@@H](CN5CCC[C@@H]5C(N)=O)C4)c4ncnc(N)c34)c2)O1 (stereo partly shown) [Example 51]
Place the items in sequence of falling pIC50. Give the labels in the order requested.
3, 5, 4, 1, 2
(3: 7.89, 5: 7.28, 4: 6.76, 1: 6.49, 2: 6.25)
